Biological target: T1, human GITR (amino acids M1-V241, NCBI Accession #NP_004186.1) expressed on cells (human, UniProt Q9Y5U5 26-241)
T1 sequence: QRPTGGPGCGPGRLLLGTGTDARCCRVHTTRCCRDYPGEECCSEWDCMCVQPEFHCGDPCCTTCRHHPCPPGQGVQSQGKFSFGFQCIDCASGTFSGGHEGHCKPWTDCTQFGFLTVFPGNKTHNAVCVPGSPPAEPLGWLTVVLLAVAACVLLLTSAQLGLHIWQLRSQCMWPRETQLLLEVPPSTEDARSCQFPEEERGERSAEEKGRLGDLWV
Test: cell-based or functional assay
Answer each item with its documented % Activation, NF-kB-Luc, non-anchored.

input: Consider the binder shown here: H4H14469P (antibody, human IgG4, V domains shown, human IgG4 (H4H)) VH: QVQLVESGGGVVQPGGSLRLSCAVSGFTFSDYGMHWVRQVPGAGLEWVAVIYYEGSNKYYADSVKGRFTISRDNSKNTLYLQMNSLRVEDTSMYFCARGPLLGGNFYSYLMDVWGQGTTVTVSS VL: AIQMTQSPSSLSASVGDRVTITCRASQGIRNGLGWYQQKPGKAPKLLIYTASSLQSGVPSRFSGSGSGTDFTLTISSLQPEDFATYYCLQDYNYPFSFGPGTKVDIK What is its recorded % Activation, NF-kB-Luc, non-anchored?
output: 50%

input: Consider the binder shown here: H1H14523P (antibody, human IgG1, V domains shown, human IgG1 (H1H)) VH: QVQLVESGGGVVQPGRSLRLSCEASGFTFSSYGMHWVRQAPGKGLEWVAVIWYSESNKYYTDSMKGRLTISRDNSKNTLYLQMNSLRAEDTAVYYCARGGLLGKYYYYGMDVWGQGTTVTVSS VL: DIQMTQSPSSLSASVGDRVIITCRASQDIRNDLGWYQQKPGKAPKRLIYAASSLQSGVPSRFSGSGSGTEFTLTISSLQPEDFATFYCLQLNSYPYTFGQGTKLEIK What is its recorded % Activation, NF-kB-Luc, non-anchored?
output: 40%
